System: LPETG (Abz-LPETGK(Dnp)-CONH2)
Test: In vitro sortase kinetics HPLC assay, LPETG substrate
Type: biochemical
Condition: substrate wt (LPETG); 10 mM GGG
Recorded Metric: kcat, 10 mM GGG (Hz)
Give the quantity in Hz, number only.

Prompt: If you can, please state the reported kcat, 10 mM GGG (Hz) value of eSrtA(2A-3.5) (protein) QAKPQIPKDKSKVAGYIEIPDADIKEPVYPGPATREQLNRGVSFAEENESLDDQNISIAGHTFIDRPNYQFTNLKAAKKGSMVYFKVGNETRKYKMTSIRNVRPTAVEILDEQKGKDKQLTLFTCDDYNEETGVWETRKIFVATEVK .
Response: 1.587

Prompt: If you can, please state the reported kcat, 10 mM GGG (Hz) value of eSrtA(2A-5): 5mut + R99H A104H K138I K162R I182V (protein) QAKPQIPKDKSKVAGYIEIPDADIKEPVYPGPATREQLNHGVSFHEENESLDDQNISIAGHTFIDRPNYQFTNLKAAKIGSMVYFKVGNETRKYKMTSIRNVRPTAVEVLDEQKGKDKQLTLVTCDDYNEETGVWETRKIFVATEVK .
Response: 0.1375

Prompt: If you can, please state the reported kcat, 10 mM GGG (Hz) value of eSrtA (protein) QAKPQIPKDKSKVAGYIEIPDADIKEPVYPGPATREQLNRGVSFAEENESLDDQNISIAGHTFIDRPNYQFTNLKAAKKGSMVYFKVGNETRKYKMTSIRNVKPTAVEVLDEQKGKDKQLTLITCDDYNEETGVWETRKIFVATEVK .
Response: 5.622
